- SYSTEM TESTED: HDAC3 (Homo sapiens)
- Construct: purchased Reaction Biology Corporation (assay run by the CRO)
- Sequence (O15379 whole entry): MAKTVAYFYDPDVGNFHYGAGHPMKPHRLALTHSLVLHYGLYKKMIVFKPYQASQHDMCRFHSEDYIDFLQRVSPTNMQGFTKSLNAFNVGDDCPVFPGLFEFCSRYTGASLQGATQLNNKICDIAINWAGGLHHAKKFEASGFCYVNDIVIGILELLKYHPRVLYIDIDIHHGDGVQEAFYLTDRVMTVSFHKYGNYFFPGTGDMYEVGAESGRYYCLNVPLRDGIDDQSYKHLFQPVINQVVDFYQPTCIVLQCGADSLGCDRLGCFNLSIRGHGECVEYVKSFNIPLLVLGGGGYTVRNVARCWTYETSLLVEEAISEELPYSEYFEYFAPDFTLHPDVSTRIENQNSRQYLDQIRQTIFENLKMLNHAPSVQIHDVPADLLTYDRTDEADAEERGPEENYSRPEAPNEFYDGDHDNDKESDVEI
- Sequence (Q9Y618 395-489 partner limits assumed): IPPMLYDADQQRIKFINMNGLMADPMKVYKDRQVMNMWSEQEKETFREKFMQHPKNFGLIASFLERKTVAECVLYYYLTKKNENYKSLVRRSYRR
- EXPERIMENTAL DETAILS: HDAC3 inhibition, full IC50 measurement (Reaction Biology; fluorogenic p53 peptide RHKK(Ac)AMC)
- Type: biochemical
- CONDITION PARAMETERS: Conc. 3.33E-06 M, t2
Peptide text beside a SMILES is read from it.
Class yes (1): HDAC3 activity raw data (signal) at least 60000. Class no (0): HDAC3 activity raw data (signal) below 60000.

NCCCC[C@@H]1NC(=O)[C@@H]2CCCN2C(=O)[C@H](CC(N)=O)NC(=O)[C@H](CCCCCS)NC(=O)CNC(=O)[C@H](Cc2c[nH]c3ccccc23)NC(=O)[C@@H](CCCCN)NC(=O)[C@H](CCC(N)=O)NC1=O [des1.1.0, SHA-Asn-Pro-Lys-Gln-dLys-Trp-Gly] (HELM PEPTIDE1{G.[O=C([C@H](CCCCCS)N[*:1])[*:2]].N.P.K.Q.[dK].W}$PEPTIDE1,PEPTIDE1,1:R1-8:R2$$$V2.0); no (0)

Quick check: does CCCC[C@H]1NC(=O)[C@H](Cc2ccccc2)NC(=O)[C@H](CCCCCS)NC(=O)[C@@H](CCCNC(=N)N)NC(=O)[C@H](CC(=O)O)NC(=O)[C@@H](CO)NC(=O)[C@@H](C)NC(=O)[C@H](CCCCN)NC1=O [des4.3.1, SHA-Phe-dNle-Lys-dAla-dSer-Asp-dArg] (HELM PEPTIDE1{D.[dR].[O=C([C@H](CCCCCS)N[*:1])[*:2]].F.[CCCC[C@@H](N[*:1])C(=O)[*:2]].K.[dA].[dS]}$PEPTIDE1,PEPTIDE1,1:R1-8:R2$$$V2.0) have HDAC3 activity raw data (signal) greater than or equal to 60000?
yes (1)

Also check CSCC[C@H]1NC(=O)[C@@H](CO)NC(=O)[C@H](CC(N)=O)NC(=O)[C@H](CC(=O)O)NC(=O)[C@@H]([C@H](C)O)NC(=O)[C@H](Cc2c[nH]c3ccccc23)NC(=O)[C@H](CCCCCS)NC(=O)[C@H](CCCCN)NC(=O)[C@@H](CC(=O)O)NC1=O [des2.1.1, SHA-Trp-dThr-Asp-Asn-dSer-dMet-dAsp-Lys] (HELM PEPTIDE1{D.N.[dS].[dM].[dD].K.[O=C([C@H](CCCCCS)N[*:1])[*:2]].W.[dT]}$PEPTIDE1,PEPTIDE1,1:R1-9:R2$$$V2.0)
no (0)

Let us now turn to N=C(N)NCCC[C@H]1NC(=O)[C@@H]2CCCN2C(=O)[C@H](CO)NC(=O)[C@@H](Cc2c[nH]cn2)NC(=O)[C@H](CCCCCS)NC(=O)[C@H](CCCCN)NC(=O)[C@H](Cc2ccc(O)cc2)NC(=O)[C@H]2CCCN2C(=O)[C@@H](CCC(N)=O)NC1=O [des3.1.0, SHA-dHis-Ser-Pro-dArg-dGln-dPro-Tyr-Lys] (HELM PEPTIDE1{K.[O=C([C@H](CCCCCS)N[*:1])[*:2]].[dH].S.P.[dR].[dQ].[dP].Y}$PEPTIDE1,PEPTIDE1,1:R1-9:R2$$$V2.0)
yes (1)

Try N=C(N)NCCC[C@@H]1NC(=O)[C@@H](CCCNC(=N)N)NC(=O)[C@H]2CCCN2C(=O)[C@@H](Cc2c[nH]cn2)NC(=O)[C@H](Cc2ccc(O)cc2)NC(=O)[C@H](CCCCCS)NC(=O)[C@H](CCc2ccccc2)NC(=O)[C@@H](CO)NC(=O)[C@H](CC(=O)O)NC1=O [des3.3.1, SHA-Tyr-dHis-dPro-dArg-Arg-Asp-dSer-C27] (HELM PEPTIDE1{[O=C([C@H](CCCCCS)N[*:1])[*:2]].Y.[dH].[dP].[dR].R.D.[dS].[O=C([C@H](CCc1ccccc1)N[*:1])[*:2]]}$PEPTIDE1,PEPTIDE1,1:R1-9:R2$$$V2.0) next.
no (0)

Next compound up: CC(C)[C@@H]1NC(=O)[C@H](CCCNC(=N)N)NC(=O)[C@@H](CC(=O)O)NC(=O)[C@H](CO)NC(=O)[C@@H](CO)NC(=O)[C@@H](CCC(=O)O)NC(=O)[C@H](Cc2ccc(O)cc2)NC(=O)[C@H](CCCCCS)NC1=O [des4.2.0, SHA-Tyr-dGlu-dSer-Ser-dAsp-Arg-Val] (HELM PEPTIDE1{R.V.[O=C([C@H](CCCCCS)N[*:1])[*:2]].Y.[dE].[dS].S.[dD]}$PEPTIDE1,PEPTIDE1,1:R1-8:R2$$$V2.0)
yes (1)

For NCCCC[C@H]1NC(=O)[C@H](CCC(N)=O)NC(=O)[C@H](CCC(=O)O)NC(=O)[C@@H]2CCCN2C(=O)[C@H](CC(N)=O)NC(=O)[C@H](CCCCCS)NC(=O)CNC(=O)[C@H](Cc2c[nH]c3ccccc23)NC1=O [des1.1.1, SHA-Asn-Pro-Glu-Gln-dLys-Trp-Gly] (HELM PEPTIDE1{E.Q.[dK].W.G.[O=C([C@H](CCCCCS)N[*:1])[*:2]].N.P}$PEPTIDE1,PEPTIDE1,1:R1-8:R2$$$V2.0) then?
no (0)

Would you kindly repeat that for N=C(N)NCCC[C@@H]1NC(=O)[C@H](Cc2c[nH]c3ccccc23)NC(=O)[C@H](CC(=O)O)NC(=O)[C@@H](CO)NC(=O)[C@H](Cc2c[nH]c3ccccc23)NC(=O)[C@H](CCCCCS)NC(=O)[C@H](CCC(N)=O)NC1=O [des4.1.0, SHA-Trp-dSer-Asp-Trp-Arg-Gln] (HELM PEPTIDE1{D.W.R.Q.[O=C([C@H](CCCCCS)N[*:1])[*:2]].W.[dS]}$PEPTIDE1,PEPTIDE1,1:R1-7:R2$$$V2.0) ?
no (0)

Now this one: CC(C)C[C@H]1NC(=O)[C@H](Cc2c[nH]c3ccccc23)NC(=O)[C@H](CCCCCS)NC(=O)[C@@H](Cc2ccc(O)cc2)NC(=O)[C@@H](C(C)C)NC(=O)[C@H](Cc2c[nH]cn2)NC(=O)CNC(=O)CNC(=O)[C@@H](CO)NC1=O [des2.2.0, SHA-Trp-dLeu-dSer-Gly-Gly-His-dVal-dTyr] (HELM PEPTIDE1{G.G.H.[dV].[dY].[O=C([C@H](CCCCCS)N[*:1])[*:2]].W.[dL].[dS]}$PEPTIDE1,PEPTIDE1,1:R1-9:R2$$$V2.0)
yes (1)

* * *

- SYSTEM TESTED: HDAC6 (Homo sapiens, UniProt Q9UBN7)
- Construct: purchased Reaction Biology Corporation (assay run by the CRO)
- Sequence (Q9UBN7 1-1215): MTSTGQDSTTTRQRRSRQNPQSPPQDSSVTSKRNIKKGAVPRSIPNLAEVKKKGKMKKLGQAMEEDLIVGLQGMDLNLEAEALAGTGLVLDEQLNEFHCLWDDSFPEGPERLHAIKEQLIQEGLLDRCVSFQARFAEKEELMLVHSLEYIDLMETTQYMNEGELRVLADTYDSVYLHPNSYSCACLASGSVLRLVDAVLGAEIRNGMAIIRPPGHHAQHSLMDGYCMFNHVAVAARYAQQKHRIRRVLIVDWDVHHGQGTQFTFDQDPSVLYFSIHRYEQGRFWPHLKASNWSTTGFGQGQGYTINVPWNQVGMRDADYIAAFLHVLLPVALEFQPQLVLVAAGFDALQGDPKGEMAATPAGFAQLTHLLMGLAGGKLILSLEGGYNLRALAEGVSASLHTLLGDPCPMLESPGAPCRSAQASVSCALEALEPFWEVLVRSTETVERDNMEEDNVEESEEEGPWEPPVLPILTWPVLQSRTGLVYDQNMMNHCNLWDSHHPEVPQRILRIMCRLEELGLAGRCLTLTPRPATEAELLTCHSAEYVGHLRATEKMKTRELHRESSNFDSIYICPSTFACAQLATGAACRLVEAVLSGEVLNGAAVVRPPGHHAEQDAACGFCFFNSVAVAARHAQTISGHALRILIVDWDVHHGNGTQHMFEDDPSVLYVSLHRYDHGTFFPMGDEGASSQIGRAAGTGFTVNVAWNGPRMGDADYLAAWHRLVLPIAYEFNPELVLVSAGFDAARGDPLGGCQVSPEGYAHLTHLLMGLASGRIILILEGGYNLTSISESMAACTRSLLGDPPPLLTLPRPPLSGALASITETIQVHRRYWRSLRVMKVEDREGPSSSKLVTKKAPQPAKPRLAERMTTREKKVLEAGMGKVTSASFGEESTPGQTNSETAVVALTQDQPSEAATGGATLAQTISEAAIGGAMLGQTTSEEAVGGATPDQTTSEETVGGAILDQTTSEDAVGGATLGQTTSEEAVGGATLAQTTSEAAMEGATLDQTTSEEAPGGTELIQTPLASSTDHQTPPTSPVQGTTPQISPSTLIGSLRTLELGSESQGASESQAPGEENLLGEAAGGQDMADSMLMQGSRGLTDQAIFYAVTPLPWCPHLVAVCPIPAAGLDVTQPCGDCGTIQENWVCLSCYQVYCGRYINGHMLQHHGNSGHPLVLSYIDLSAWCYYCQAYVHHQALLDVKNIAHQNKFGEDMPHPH
- EXPERIMENTAL DETAILS: HDAC6 inhibition, full IC50 measurement (Reaction Biology; fluorogenic p53 peptide RHKK(Ac)AMC)
- Type: biochemical
- CONDITION PARAMETERS: Conc. 3.33E-06 M, t2
- Method: The assay was performed using 50 μM fluorogenic peptide from p53 residues 379-382 [RHKK(Ac)AMC] in a base reaction buffer of 50 mM Tris-HCl at pH 8.0, 137 mM NaCl, 2.7 mM KCl, 1 mM MgCl2, and freshly added 1 mg/ml BSA and 1% DMSO. […] Peptide concentrations were calculated based on mass of lyophilized peptide and its molecular weight. […]
Peptide text beside a SMILES is read from it.
I'd appreciate it if you could supply HDAC6 activity raw data (signal) values for the items below.
One number for each entry.

// solved cases for HDAC6 activity raw data (signal) follow
CSCC[C@H]1NC(=O)[C@@H](CO)NC(=O)[C@H](CC(N)=O)NC(=O)[C@H](CC(=O)O)NC(=O)[C@@H]([C@H](C)O)NC(=O)[C@H](Cc2c[nH]c3ccccc23)NC(=O)[C@H](CCCCCS)NC(=O)[C@H](CCCCN)NC(=O)[C@@H](CC(=O)O)NC1=O [des2.1.1, SHA-Trp-dThr-Asp-Asn-dSer-dMet-dAsp-Lys] (HELM PEPTIDE1{D.N.[dS].[dM].[dD].K.[O=C([C@H](CCCCCS)N[*:1])[*:2]].W.[dT]}$PEPTIDE1,PEPTIDE1,1:R1-9:R2$$$V2.0); 2213
CC(C)[C@@H]1NC(=O)[C@H](CCCNC(=N)N)NC(=O)[C@@H](CC(=O)O)NC(=O)[C@H](CO)NC(=O)[C@@H](CO)NC(=O)[C@@H](CCC(=O)O)NC(=O)[C@H](Cc2ccc(O)cc2)NC(=O)[C@H](CCCCCS)NC1=O [des4.2.0, SHA-Tyr-dGlu-dSer-Ser-dAsp-Arg-Val] (HELM PEPTIDE1{R.V.[O=C([C@H](CCCCCS)N[*:1])[*:2]].Y.[dE].[dS].S.[dD]}$PEPTIDE1,PEPTIDE1,1:R1-8:R2$$$V2.0); 45218

Query compound follows.
Entry CC(C)C[C@H]1NC(=O)[C@H](Cc2c[nH]c3ccccc23)NC(=O)[C@H](CCCCCS)NC(=O)[C@@H](Cc2ccc(O)cc2)NC(=O)[C@@H](C(C)C)NC(=O)[C@H](Cc2c[nH]cn2)NC(=O)CNC(=O)CNC(=O)[C@@H](CO)NC1=O [des2.2.0, SHA-Trp-dLeu-dSer-Gly-Gly-His-dVal-dTyr] (HELM PEPTIDE1{G.G.H.[dV].[dY].[O=C([C@H](CCCCCS)N[*:1])[*:2]].W.[dL].[dS]}$PEPTIDE1,PEPTIDE1,1:R1-9:R2$$$V2.0) has what HDAC6 activity raw data (signal)?
31435
